# credit: ChEMBL document CHEMBL1146892

- Tested on: Escherichia coli
- experiment-description: Antibacterial activity against Escherichia coli ATCC 25922
- Type: functional
What MBC was measured for each of the following?

Some compounds with known MBC results, for comparison:
{"compound": "C[C@H]1CN=C(N)N1CC1CCCN1C[C@@H](CC1CCCCC1)N1C[C@@H](CC2CCCCC2)N(CCc2cc(C(F)(F)F)cc(C(F)(F)F)c2)C1=N (stereo partly drawn)", "MBC": "5 µg/mL"}
{"compound": "CCCC[C@@H]1CN([C@@H](CC2CCCCC2)CN2CCCC2CN2C(N)=NC[C@@H]2Cc2ccccc2)C(=N)N1CC(C)c1ccc(CC(C)C)cc1 (stereo partly drawn)", "MBC": "> 10 µg/mL"}
{"compound": "N=C1N(CCc2cc(C(F)(F)F)cc(C(F)(F)F)c2)[C@H](CC2CCCCC2)CN1[C@@H](CC1CCCCC1)CN1CCCC1CN1C(N)=NC[C@@H]1Cc1ccccc1 (stereo partly drawn)", "MBC": "5 µg/mL"}
{"compound": "CC(C)Cc1ccc(C(C)CN2C(=N)N([C@H](CC3CCCCC3)CN3CCCC3CN3C(N)=NC[C@@H]3Cc3ccccc3)C[C@@H]2CC2CCCCC2)cc1 (stereo partly drawn)", "MBC": "> 10 µg/mL"}
{"compound": "CCCC[C@@H]1CN([C@@H](CC2CCCCC2)CN2CCCC2CN2C(N)=NC[C@@H]2C)C(=N)N1CC(C)c1ccc(CC(C)C)cc1 (stereo partly drawn)", "MBC": "> 10 µg/mL"}

Field: MBC. Fill in for each record below.
1. CCCC[C@@H]1CN([C@H](Cc2ccc3ccccc3c2)CN2CCCC2CN2C(N)=NC[C@@H]2C)C(=N)N1CC(C)c1ccc(CC(C)C)cc1 (stereo partly drawn)
2. CCCC[C@@H]1CN([C@H](CC2CCCCC2)CN2CCCC2CN2C(N)=NC[C@@H]2C)C(=N)N1CCc1cc(C(F)(F)F)cc(C(F)(F)F)c1 (stereo partly drawn)
3. N=C1N(CCc2cc(C(F)(F)F)cc(C(F)(F)F)c2)[C@H](CC2CCCCC2)CN1[C@H](CC1CCCCC1)CN1CCCC1CN1C(N)=NC[C@@H]1Cc1ccccc1 (stereo partly drawn)
4. CCCC[C@@H]1CN([C@H](Cc2ccc3ccccc3c2)CN2CCCC2CN2C(N)=NC[C@@H]2Cc2ccccc2)C(=N)N1CCc1cc(C(F)(F)F)cc(C(F)(F)F)c1 (stereo partly drawn)

1. 5 µg/mL
2. > 10 µg/mL
3. > 10 µg/mL
4. > 10 µg/mL

Field: MBC. Fill in for each record below.
1. CC(C)Cc1ccc(C(C)CN2C(=N)N([C@@H](CC3CCCCC3)CN3CCCC3CN3C(N)=NC[C@@H]3Cc3ccccc3)C[C@@H]2CC2CCCCC2)cc1 (stereo partly drawn)
2. CC(C)Cc1ccc(C(C)CN2C(=N)N([C@@H](CC3CCCCC3)CN3CCCC3CN3C(N)=NC[C@@H]3C)C[C@@H]2CC2CCCCC2)cc1 (stereo partly drawn)
3. CC(C)Cc1ccc(C(C)CN2C(=N)N([C@H](CC3CCCCC3)CN3CCCC3CN3C(N)=NC[C@@H]3C)C[C@@H]2CC2CCCCC2)cc1 (stereo partly drawn)
4. CCCC[C@@H]1CN([C@H](Cc2ccc3ccccc3c2)CN2CCCC2CN2C(N)=NC[C@@H]2C)C(=N)N1CCc1cc(C(F)(F)F)cc(C(F)(F)F)c1 (stereo partly drawn)

1: > 10 µg/mL; 2: 5 µg/mL; 3: 5 µg/mL; 4: > 10 µg/mL
